Tested on: K86415-001-R-J1-PDC complex spheroids, viability;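 note: spheroids exposed to agents for seven days before readout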
Test details: Anticancer human tumor K86415-001-R-J1-PDC patient-derived lung adenocarcinoma cell line growth inhibition [RAS]
Condition label: second compound 0.03 µM; first compound 10 µM; stronger effect = lower value
Field: viability, T/C. Provide a value for each of the compounds that follow.

C[C@@H](NC(=O)c1ncnc(N)c1Cl)c1ncc(C(=O)Nc2cc(C(F)(F)F)c(Cl)cn2)s1 + CCn1c(-c2cc(N3CCN(C)CC3)cnc2C(C)OC)c2c3cc(ccc31)-c1csc(n1)CC(NC(=O)C1CC1C)C(=O)N1CCCC(N1)C(=O)OCC(C)(C)C2 yielded viability, T/C of 7.57%

CC(Nc1ccc2c(c1)OCCn1cc(N3C(=O)OCC3C(F)F)nc1-2)C(N)=O (stereo not drawn) + CCn1c(-c2cc(N3CCN(C)CC3)cnc2C(C)OC)c2c3cc(ccc31)-c1csc(n1)CC(NC(=O)C1CC1C)C(=O)N1CCCC(N1)C(=O)OCC(C)(C)C2 yielded viability, T/C of 0.63%

CC(C)NCC(C(=O)N1CCN(c2ncnc3c2C(C)CC3O)CC1)c1ccc(Cl)cc1 (stereo not drawn) + CCn1c(-c2cccnc2C(C)OC)c2c3cc(ccc31)N1CCOC(CC(NC(=O)C(C(C)C)N(C)C(=O)C3(F)CCN(C(=O)C#CC(C)(C)N(C)C)CC3)C(=O)N3CCCC(N3)C(=O)OCC(C)(C)C2)C1 yielded viability, T/C of 3.21%

The reported measurements were obtained from PubChem BioAssay AID2060893.
